Test system: MS2 coat protein
Test: apparent Kd, MS2 coat protein; higher = weaker binding; RNA-MaP array; theophylline 2 mM where present
Settings: designed as: ON switch for theophylline; no ligand
Each item that follows carries a reported apparent Kd.

{"residue codes": "GAACAUGAGGAUCACCCAUGUAAAACAGAUACCAGUGAUAUAAUACACCCUUGGCAGCUGUAGCUGAAUAAUAAUUCCCUCAAGC", "unit annotation": "nM", "apparent Kd": 15.5}
{"residue codes": "UAAAACAUGAGGAUCACCCAUGUAAUUGAUACCAGAGUGAUGAUCCUCCCUUGGCAGCAAAUAACGCAUUGAUUACAAUGCGAAA", "unit annotation": "nM", "apparent Kd": 42.7}
{"residue codes": "UUUGAUAGAACAGAUACCAGCGUGUUAUAAAACAUGAGGAUCACCCAUGUAGUGAUCAAGCGCCCUUGGCAGCUGGUUUGUUAGG", "unit annotation": "nM", "apparent Kd": 135}
{"residue codes": "AACAGGGCUCGCACGAAGCCCUAAGGUGAUACCAGCACAUGUAAGUGCCCUUGGCAGCACGGUACAUGAGGAUCACCCAUGUAGA", "unit annotation": "nM", "apparent Kd": 64.3}
{"residue codes": "AUUUUUCUAUCAGAUACCAGACAAUUUUAGACAUGAGGAUCACCCAUGUAUAGGGUGUUCGUCCCUUGGCAGCUGUUAAGUUUAA", "unit annotation": "nM", "apparent Kd": 190}
{"residue codes": "ACCAUGUAAUCAGAUACCAGACAUCUUUUAAAUCAUAUUACAUGAGGAUCACCCAUGUUGGUCCCUUGGCAGCUGAAAUAUUUUU", "unit annotation": "nM", "apparent Kd": 205}
{"residue codes": "UUUACAUGAGGAUCACCCAUGUGCCAUGAUACCAGACAUGAAAAUGUCCCUUGGCAGCAUGAAAGAUCCACGUCGGAAACGACGG", "unit annotation": "nM", "apparent Kd": 176}
{"residue codes": "GCACCAGGUACGGAUACCAGCUGCCAUAGUUACAUGAGGAUCACCCAUGUGAUCUAUUGUAGCCCUUGGCAGCUGUACCUGGUGC", "unit annotation": "nM", "apparent Kd": 104}
{"residue codes": "UUUGAAAUAACAGAUACCAGCGUGUUAUAAAACAUGAGGAUCACCCAUGUAGUGAUCAAGCGCCCUUGGCAGCUGGUAUUUUAGG", "unit annotation": "nM", "apparent Kd": 85.4}
{"residue codes": "UGUAACAUGAGGAUCACCCAUGUGCACGAUACCAGCUUCGAAAGAGGCCCUUGGCAGCGUAUGCGUAAGCUGUAUAAUAUAUAUC", "unit annotation": "nM", "apparent Kd": 11.4}
{"residue codes": "ACAUGAACAUGAGGAUCACCCAUGUAUGAUACCAGAAAAGAAGAGUUCCCUUGGCAGCGUACAACACAUGAGGAUCACCCAUGUG", "unit annotation": "nM", "apparent Kd": 24.1}
{"residue codes": "ACGACGCAUAGUGAUACCAGUACAACAUGAGGAUCACCCAUGUCACAUAUGUUGUAAUAGUGCCCUUGGCAGCACUAUGCGUCAG", "unit annotation": "nM", "apparent Kd": 155}
{"residue codes": "AUUAAUAGUUGUGAUACCAGACGAACAUGAGGAUCACCCAUGUAACUUUUAGGUGUUGUAGUCCCUUGGCAGCACUAUUUAGUUA", "unit annotation": "nM", "apparent Kd": 42.7}
{"residue codes": "ACGACGCAUACAGAUACCAGUAGCCGAGAAACAUGAGGAUCACCCAUGUCGAGCGACAACUGCCCUUGGCAGCUGUAUGCGUCAG", "unit annotation": "nM", "apparent Kd": 8.49}

---

Tested on: MS2 coat protein
Assay: apparent Kd, MS2 coat protein; higher = weaker binding; RNA-MaP array
Conditions: ligand present: flavin mononucleotide; designed as: ON switch for flavin mononucleotide

{"residue codes": "AACAAACACAUGAGGAUCACCCAUGUCCUUGAUAUAAUUACUCAGGAUAUCAUGUCCUCUCACCGUGAGAAGGGAGUCAAAACC", "unit annotation": "nM", "apparent Kd": 59.5}
{"residue codes": "UAGCAAUUACAUGAGGAUCACCCAUGUCUAUCGCAGAACAAGCAGGAUAUAGUGACACGACUCCGCUAGAAGGGCUCCUCUGUU", "unit annotation": "nM", "apparent Kd": 55.3}
{"residue codes": "ACCACAGAGUAGAAGGUCCGACACGGCUCGUCGGAAGGAUAUACAUAUUGUUAGAGAUGGGAACAUGAGGAUCACCCAUGUGUC", "unit annotation": "nM", "apparent Kd": 9.9}
{"residue codes": "AAUCGCAAUUGAGGAUAUUGAACUGAAUUGGCCACAUGAGGAUCACCCAUGUGACCUGUCUCCGUCAAGAAGGCAAUGUGGUGG", "unit annotation": "nM", "apparent Kd": 4.81}
{"residue codes": "AAAGGAUUCAAGAAGGUACCCUAACAUGAGGAUCACCCAUGUCUCGGUGGCAUCAAGGUACCUGGUAAGGAUAUUGCAACCACU", "unit annotation": "nM", "apparent Kd": 33.2}
{"residue codes": "CAUCAAAAGCUAGGAUAUACCUAGAGUACCGGAACAUGAGGAUCACCCAUGUUAGAGUGAUGCUGGUAGAAGGAGCUGGUAAAG", "unit annotation": "nM", "apparent Kd": 15.8}
{"residue codes": "AAAGCUACCAAAGGAUAUUGUUUCCAUCACACAUGAGGAUCACCCAUGUAGCCAUAAACGGAUCGCAAGAAGGUUGGGAAAGUG", "unit annotation": "nM", "apparent Kd": 9.07}

---

Measured apparent Kd of individual entries
Tested on: MS2 coat protein
Assay: apparent Kd, MS2 coat protein; higher = weaker binding; RNA-MaP array
Conditions: ligand present: flavin mononucleotide; designed as: ON switch for flavin mononucleotide

{"residue codes": "UACAUGAGGAUCACCCAUGUCUCUAGUCGUUUUUGUUAGAAUAGAAGGAGUCGCAUAAAGCAUAACUAGGAUAUAUUCUUGUUU", "apparent Kd (nM)": 11.6}
{"residue codes": "GGAUCACAUGAGGAUCACCCAUGUAAAGACGAUACAGGAUAUGACAGAACACGCAUCGUUUCAGAAGGGUAUAGUG", "apparent Kd (nM)": 47.6}
{"residue codes": "UGAUUACAUGAGGAUCACCCAUGUGACUACGCCUCAGGAUAUGAUGACAAAUUCUAGAAGUCAGAAGGGAGUUUGU", "apparent Kd (nM)": 21.3}
{"residue codes": "GAACAACAUGAGGAUCACCCAUGUGACAGCCGUCAAGGAUAUUCCGGGAAAGGAGGUCCGGAAGAAGGUGAUCGUA", "apparent Kd (nM)": 341}
{"residue codes": "CGGGCCAUCUAAGGAUAUUUGCCGGCCCGAAGACAUGAGGAUCACCCAUGUGUGAACGGAUGUCGAAAGAAGGUAGACCUGGUC", "apparent Kd (nM)": 206}

---

Reported apparent Kd by item:
System: MS2 coat protein
Experiment: apparent Kd, MS2 coat protein; higher = weaker binding; RNA-MaP array; theophylline 2 mM where present
Details: designed as: OFF switch for theophylline; no ligand

{"residue codes": "AGCGAUAUGCAUGAUACCAGCUACAUGAGGAUCACCCAUGUGCGUCAGUAAUGACUGUGUAGCCCUUGGCAGCAUAGAGCAUGUA", "apparent Kd (µM)": 0.0376}
{"residue codes": "GAUGAACUAUUUGAUACCAGACUACAUGAGGAUCACCCAUGUGUGUUUAUACUUCAGUCAGUCCCUUGGCAGCAAAUAGUUUAUC", "apparent Kd (µM)": 0.147}
{"residue codes": "AAACUGGGUGUAAAAUAAAUAAUCACUGAUACCAGACUAUAGUAUGUCCCUUGGCAGCAGAAACAUGAGGAUCACCCAUGUAAUA", "apparent Kd (µM)": 0.0217}
{"residue codes": "AUGGUAGGACAGCACAUAUAAGCUUGUGAUACCAGCUAGAAAACUAGCCCUUGGCAGCACAUUACAUGAGGAUCACCCAUGUCCC", "apparent Kd (µM)": 0.051}
{"residue codes": "AUAAGGUAUCUGCUAUCCUCAUGAGCAGAUACCAGCUAGGAAACUAGCCCUUGGCAGCUGCAACAUGAGGAUCACCCAUGUAAUA", "apparent Kd (µM)": 0.409}
{"residue codes": "CAAACAUGAGGAUCACCCAUGUAAUCAGAUACCAGUGACGAAAGUCACCCUUGGCAGCUGAUUACUUUAGUUCUAAGGUGUUUGA", "apparent Kd (µM)": 0.0926}
{"residue codes": "AUGGCGUUGGUGUAGCUGUGAAAUGGCGAUACCAGCGUGGAAACACGCCCUUGGCAGCGCCAAAACAUGAGGAUCACCCAUGUUA", "apparent Kd (µM)": 0.0201}
